For each entry below, report its inhibition value.
experimentalSystem: Casein kinase I isoform gamma-1 (Homo sapiens);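 also: reported as mean inhibition, part of GSK PKIS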
reportedConditions: at 0.1 µM
Write it as a number; the unit % goes unstated.

Give the measured inhibition of "COc1ccc(-c2nn3ncccc3c2-c2ccnc(Nc3ccc(Cl)c(C(F)(F)F)c3)n2)cc1" . 1.89

Value lookup for inhibition; key = "COc1cc2c(cc1Nc1nc(N3CCc4ccccc43)c3cc[nH]c3n1)N(C(=O)CN(C)C)CC2" 1.43

// query inhibition value for entry "O=C1Nc2ccc(C(=O)c3ccco3)cc2C1=Cc1cc(Cl)c(O)c(Cl)c1" 2.49

Need inhibition, item "NCc1ccc(-c2nc(-c3ccc(Cl)c(O)c3)c(-c3ccncc3)[nH]2)cc1" 0.41

Any idea what its inhibition is? The compound is "COc1ccc(-c2ccncc2)cc1C(N)=O" 3.94
